# assayed target: BaF3 TELJAK3 cells (Homo sapiens)
# Construct: fused on or other part: TEL (ETV6) N-terminal part, coding nucleotides 1-487, serves as the oligomerising partner; It is fused through a Sal I site to the JAK3 kinase domain and expressed from pTRE2 in BaF3 cells bearing pTET-off; P41212 (Transcription factor ETV6)
# Sequence (P52333 whole entry, change not shown, the tested form may be a part): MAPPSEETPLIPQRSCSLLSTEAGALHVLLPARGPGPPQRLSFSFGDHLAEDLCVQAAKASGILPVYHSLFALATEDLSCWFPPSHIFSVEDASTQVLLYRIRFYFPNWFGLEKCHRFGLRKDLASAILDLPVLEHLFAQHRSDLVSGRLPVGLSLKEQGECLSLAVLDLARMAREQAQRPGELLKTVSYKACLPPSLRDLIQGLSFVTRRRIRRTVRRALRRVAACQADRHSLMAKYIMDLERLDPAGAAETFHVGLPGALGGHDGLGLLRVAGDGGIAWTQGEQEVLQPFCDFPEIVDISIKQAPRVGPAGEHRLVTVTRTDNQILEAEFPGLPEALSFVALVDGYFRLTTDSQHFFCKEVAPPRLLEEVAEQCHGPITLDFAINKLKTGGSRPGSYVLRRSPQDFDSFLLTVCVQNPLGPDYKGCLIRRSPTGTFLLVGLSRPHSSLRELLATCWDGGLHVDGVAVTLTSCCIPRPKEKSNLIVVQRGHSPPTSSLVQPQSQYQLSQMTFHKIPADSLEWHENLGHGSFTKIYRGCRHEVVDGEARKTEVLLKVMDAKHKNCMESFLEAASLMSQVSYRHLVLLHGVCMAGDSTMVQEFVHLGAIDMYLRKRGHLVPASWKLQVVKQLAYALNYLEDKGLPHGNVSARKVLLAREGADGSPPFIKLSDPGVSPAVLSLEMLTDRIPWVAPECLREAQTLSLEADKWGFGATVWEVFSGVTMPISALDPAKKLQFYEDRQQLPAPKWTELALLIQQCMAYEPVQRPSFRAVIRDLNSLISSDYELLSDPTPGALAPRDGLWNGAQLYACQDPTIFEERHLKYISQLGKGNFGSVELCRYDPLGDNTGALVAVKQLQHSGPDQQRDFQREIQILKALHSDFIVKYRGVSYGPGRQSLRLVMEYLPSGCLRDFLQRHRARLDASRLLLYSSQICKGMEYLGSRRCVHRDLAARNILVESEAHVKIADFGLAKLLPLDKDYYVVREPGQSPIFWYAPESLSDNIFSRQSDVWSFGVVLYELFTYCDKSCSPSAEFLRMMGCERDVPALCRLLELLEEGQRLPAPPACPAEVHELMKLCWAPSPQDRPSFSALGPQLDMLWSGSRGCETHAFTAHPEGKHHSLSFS
# method description: Cellular screening, BaF3 TEL:JAK3 cells, Alamar Blue
# Assay type: cell-based
# condition description: 40 hr, read-out: BafT_J3 IC50_nM
Reported values of GI50 for individual entries
test readout: GI50

| compound | test readout | reading |
| --- | --- | --- |
| C=CC(=O)Nc1cccc(Nc2nccc(SC)n2)c1 [Compound 7] | GI50 | < 5000 nM |
| C=CC(=O)Nc1ccc(Sc2nc(Nc3ccc(N4CCN(C)CC4)c(OC)c3)ncc2C)cc1 [Compound 249] | GI50 | < 1000 nM |
| C=CC(=O)Nc1ccc(Sc2ccnc(Nc3ccc(O)cc3)n2)cc1 [Compound 276] | GI50 | < 1000 nM |
| C=CC(=O)Nc1ccc(Sc2ccnc(Nc3ccc(OC)cc3)n2)cc1 [Compound 74] | GI50 | < 1000 nM |
| Cc1cnc(Nc2ccc(N3CCOCC3)cc2)nc1Sc1ccc(C(=O)N2CCCC2)cc1 [Compound 224] | GI50 | > 20000 nM |

* * *

# Test system: BaF3 wild-type cells
# method description: Cellular screening, BaF3 wild-type cells, Alamar Blue
# Type: cell-based
# condition description: Mus musculus, 40 hr, read-out: BAF3wt IC50_nM
pIC50: −log10 of the molar value.

| compound | assayed target | pIC50 |
| --- | --- | --- |
| C=CC(=O)Nc1ccc(Sc2nc(Nc3ccc(C)c(Br)c3)ncc2C)cc1 | BaF3 wild-type cells | < 4.70 |
| Cc1cnc(Nc2ccc(N3CCOCC3)cc2)nc1Sc1ccc(N)cc1 | BaF3 wild-type cells | < 4.70 |
| C=CC(=O)Nc1ccc(Sc2ccnc(Nc3cccc(N4CCCC4)c3)n2)cc1 | BaF3 wild-type cells | > 4.70 |
| N#CCNCc1cccc(Sc2ccnc(Nc3ccc(N4CCOCC4)cc3)n2)c1 | BaF3 wild-type cells | < 4.70 |
| Cc1cnc(Nc2ccc(N3CCOCC3)cc2)nc1Sc1ccc(NC(=O)/C(Br)=C\C(=O)O)cc1 | BaF3 wild-type cells | < 4.70 |
| Cc1cnc(Nc2ccc(N3CCOCC3)cc2)nc1Sc1ccc(N2CCSCC2=O)cc1 | BaF3 wild-type cells | < 4.70 |
| N#Cc1nccc(Sc2ccc(Sc3ccnc(Nc4ccc(N5CCOCC5)cc4)n3)cc2)n1 | BaF3 wild-type cells | > 5.30 |
| C=CC(=O)Nc1ccc(Sc2ccnc(Nc3cccc(O)c3)n2)cc1 | BaF3 wild-type cells | < 4.70 |
| O=C(Nc1ccc(Sc2ccnc(Nc3ccc(N4CCOCC4)cc3)n2)cc1)C1CC1(F)Cl (stereo not drawn) | BaF3 wild-type cells | > 6.00 |

* * *

# assayed target: BTK(h) (Homo sapiens, UniProt Q06187)
# Construct: purchased Upstate Biotechnology (Dundee, UK), KinaseProfiler service
# Sequence (Q06187 whole entry): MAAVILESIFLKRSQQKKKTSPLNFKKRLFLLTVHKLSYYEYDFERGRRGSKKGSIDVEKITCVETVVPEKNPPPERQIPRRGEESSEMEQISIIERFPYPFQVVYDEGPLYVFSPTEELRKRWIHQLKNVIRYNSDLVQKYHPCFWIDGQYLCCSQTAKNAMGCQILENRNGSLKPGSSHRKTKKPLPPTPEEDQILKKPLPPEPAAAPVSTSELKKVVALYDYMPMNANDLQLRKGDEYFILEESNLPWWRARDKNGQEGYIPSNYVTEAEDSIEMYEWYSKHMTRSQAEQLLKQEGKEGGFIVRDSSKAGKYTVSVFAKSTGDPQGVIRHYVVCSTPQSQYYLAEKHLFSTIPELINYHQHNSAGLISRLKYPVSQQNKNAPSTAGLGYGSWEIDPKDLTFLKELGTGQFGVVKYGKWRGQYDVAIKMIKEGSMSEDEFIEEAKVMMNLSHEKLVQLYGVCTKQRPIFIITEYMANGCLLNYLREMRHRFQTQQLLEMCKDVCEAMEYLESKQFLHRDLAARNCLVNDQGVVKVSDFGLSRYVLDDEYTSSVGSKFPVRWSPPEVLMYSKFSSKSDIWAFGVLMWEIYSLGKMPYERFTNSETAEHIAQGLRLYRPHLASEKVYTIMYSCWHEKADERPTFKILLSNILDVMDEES
# method description: Upstate KinaseProfiler enzyme assay, BTK
# Type: biochemical
# condition description: 500 nM compound; read-out: Percent inhibition at 500 nM BTK(h)
test readout: inhibition at 0.5 µM (%)

| compound | test readout | reading |
| --- | --- | --- |
| C=CC(=O)Nc1cccc(Sc2ccnc(Nc3cccc(N4CCOCC4)c3)n2)c1 | inhibition at 0.5 µM | 100 |
| C=CC(=O)Nc1ccc(Sc2nc(Nc3cccc(N4CCN(C)CC4)c3)ncc2C)cc1 | inhibition at 0.5 µM | 97 |
| C=CC(=O)Nc1ccc(Sc2ccnc(Nc3ccc(Cl)cc3)n2)cc1 | inhibition at 0.5 µM | 100 |
| C=CC(=O)Nc1ccc(Sc2ccnc(Nc3ccc(S(N)(=O)=O)cc3)n2)cc1 | inhibition at 0.5 µM | 100 |
